The reported measurements were obtained from patent US4173648A.

test: LD50 in mice per os (acute toxicity); settings: mouse, in vivo, po
measurement-type: LD50
A bare number is not enough; add the unit after it.

The recorded LD50 for entry CC1(C)[C@@H](OC(=O)CCC(=O)O)CC[C@]2(C)[C@H]3C(=O)C=C4[C@@H]5C[C@@](C)(C(=O)O)CC[C@]5(C)CC[C@@]4(C)[C@]3(C)CC[C@@H]12 equals 700 mg/kg

Consider now this further molecule.
The recorded LD50 for entry CC1(C)[C@@H](OC(=O)CCC(=O)O)CC[C@]2(C)C3=CCC4[C@@H]5C[C@@](C)(C(=O)O)CC[C@]5(C)CC[C@@]4(C)[C@]3(C)CC[C@@H]12 (some centres unmarked) equals 1000 mg/kg
